- Test system: Plasmodium falciparum
- measurement-notes: Confirmatory screen in NF54 nanoGlo assay, in single point, at 2uM, 72h
- Format: functional, Erythrocyte
- condition: timepoint 72 hour
The campaign covered roughly 4,800 compounds. About 420 (8.8%) showed an effect of 50% or more. This is one part of a sample in which strong results are shown more often than they occur.
observed-property: % Inhibition
Report the figure along with its unit, number first.

Consider the following illustrative entries.
[
  {
    "chem-smiles": "C[C@](O)(CCc1ccccc1)C(=O)NCCc1ncc[nH]1",
    "% Inhibition": "3%"
  },
  {
    "chem-smiles": "CN(CCCNC(=O)Cc1n[nH]c(=O)c2ccccc12)Cc1ccccc1",
    "% Inhibition": "-2%"
  },
  {
    "chem-smiles": "Clc1ccc(C[n+]2ccc(-c3nc4ccccc4o3)cc2)c(Cl)c1",
    "% Inhibition": "58%"
  }
]

Consider now this further molecule.
% Inhibition reading for COc1ccc(NC(=O)c2nc(Nc3ccccc3)c3ccccc3n2)cc1 : 17%

---

Measured % Inhibition of individual entries
- System: Plasmodium falciparum
- measurement-notes: Confirmatory screen in NF54 nanoGlo assay, in single point, at 2uM, 72h
- Assay type: functional, Erythrocyte
- condition: timepoint 72 hour
About 420 (8.8%) of roughly 4,800 compounds showed an effect of 50% or more. This excerpt belongs to a sample that is enriched for strong results.
Expressed in %, but write only the number.

% Inhibition reading for CNCCc1c(-c2ccccc2)[nH]n(-c2ccccc2)c1=O : 63

---

- Test system: Plasmodium falciparum
- measurement-notes: Confirmatory screen in NF54 nanoGlo assay, in single point, at 2uM, 72h
- Format: functional, Erythrocyte
- condition: timepoint 72 hour
Hit rate of the full screen: of about 4,800 compounds, about 420 (8.8%) showed an effect of 50% or more. Only a selection was taken, and strong results are over-represented in it overall.
observed-property: % Inhibition
Report the figure along with its unit, number first.

Consider the following illustrative entries.
[
  {
    "molecule": "CN1CCN(C(=O)[C@@H]2Cc3ccccc32)CC1",
    "observed-result": "2%"
  },
  {
    "molecule": "CCCN1CCC(NCc2ccc(-c3cccc(Cl)c3Cl)o2)CC1",
    "observed-result": "65%"
  },
  {
    "molecule": "CN1CCC2C(CCN2C(=O)Nc2ccc(Cl)c(C(F)(F)F)c2)C1 (stereo not given)",
    "observed-result": "2%"
  },
  {
    "molecule": "CC(C)(C)[C@H]1CCc2c(sc(NC(=O)C3(F)C(F)(F)C(F)(F)C(F)(F)C(F)(F)C3(F)F)c2C#N)C1",
    "observed-result": "50%"
  }
]

Consider now this further molecule.
% Inhibition reading for CNCCCNC(=O)c1ccc(Br)cc1C : 5%

---

- Tested on: Plasmodium falciparum
- measurement-notes: Confirmatory screen in NF54 nanoGlo assay, in single point, at 2uM, 72h
- Type: functional, Erythrocyte
- condition: timepoint 72 hour
In all, about 4,800 compounds went through this assay and about 420 (8.8%) showed an effect of 50% or more. This is one part of a sample in which strong results are shown more often than they occur.
# note: exactly -10% is not below, so it is No; use Yes for % Inhibition strictly under it

[
  {
    "chem-smiles": "O=C(Nn1cnc2ccccc2c1=O)c1cnccn1",
    "label-class": "No"
  },
  {
    "chem-smiles": "CCn1nccc1CN(C)C(=O)c1cc(C)c(C)s1",
    "label-class": "No"
  },
  {
    "chem-smiles": "CC(C)(C)CC(=O)Nc1ccc2c(c1)C(N1CCCCC1)=Nc1ccccc1O2",
    "label-class": "Yes"
  },
  {
    "chem-smiles": "Oc1ccc(C2=C(c3ccccc3)N=NCN2O)c(O)c1",
    "label-class": "Yes"
  },
  {
    "chem-smiles": "COc1ccc(CCNC(=O)c2c(C)noc2-c2ccncc2)cc1OC",
    "label-class": "No"
  },
  {
    "chem-smiles": "O=C(Nc1ccc(OC2CCC2)c(F)c1)N1CC[C@H](O)C1",
    "label-class": "No"
  },
  {
    "chem-smiles": "CCC(C)(C)NCC(=O)Nc1cc(F)ccc1F",
    "label-class": "Yes"
  },
  {
    "chem-smiles": "Cc1cccc(C(=O)ON2C(=O)CCC2=O)c1",
    "label-class": "Yes"
  },
  {
    "chem-smiles": "CCC(=O)Nc1nc2ccc(NS(=O)(=O)Cc3ccccc3)cc2s1",
    "label-class": "No"
  },
  {
    "chem-smiles": "O=C(NCc1ccccc1F)C1CCN(c2cncnc2N2CCCC2)CC1",
    "label-class": "No"
  }
]

Request: Bench note: check whether Cc1cc(C)c2nc(C)cc(Nc3ccc(O)cc3)c2c1 shows % Inhibition below -10%
Response: No

Request: Bench note: check whether O=C(Cc1ccc(F)cc1F)N1CCc2[nH]nc(C(=O)N3CCN(c4ccccc4)CC3)c2C1 shows % Inhibition below -10%
Response: No

Request: Bench note: check whether CC(=O)Nc1cc2c(cc1NC(C)=O)N(C(C)=O)CC2 shows % Inhibition below -10%
Response: Yes

The values you see were collected from ChEMBL document CHEMBL4888484.
